- Measurement target: H1047R PIK3CA enzyme (Homo sapiens, UniProt P42336, H1047R)
- Sequence (P42336 whole entry H1047R): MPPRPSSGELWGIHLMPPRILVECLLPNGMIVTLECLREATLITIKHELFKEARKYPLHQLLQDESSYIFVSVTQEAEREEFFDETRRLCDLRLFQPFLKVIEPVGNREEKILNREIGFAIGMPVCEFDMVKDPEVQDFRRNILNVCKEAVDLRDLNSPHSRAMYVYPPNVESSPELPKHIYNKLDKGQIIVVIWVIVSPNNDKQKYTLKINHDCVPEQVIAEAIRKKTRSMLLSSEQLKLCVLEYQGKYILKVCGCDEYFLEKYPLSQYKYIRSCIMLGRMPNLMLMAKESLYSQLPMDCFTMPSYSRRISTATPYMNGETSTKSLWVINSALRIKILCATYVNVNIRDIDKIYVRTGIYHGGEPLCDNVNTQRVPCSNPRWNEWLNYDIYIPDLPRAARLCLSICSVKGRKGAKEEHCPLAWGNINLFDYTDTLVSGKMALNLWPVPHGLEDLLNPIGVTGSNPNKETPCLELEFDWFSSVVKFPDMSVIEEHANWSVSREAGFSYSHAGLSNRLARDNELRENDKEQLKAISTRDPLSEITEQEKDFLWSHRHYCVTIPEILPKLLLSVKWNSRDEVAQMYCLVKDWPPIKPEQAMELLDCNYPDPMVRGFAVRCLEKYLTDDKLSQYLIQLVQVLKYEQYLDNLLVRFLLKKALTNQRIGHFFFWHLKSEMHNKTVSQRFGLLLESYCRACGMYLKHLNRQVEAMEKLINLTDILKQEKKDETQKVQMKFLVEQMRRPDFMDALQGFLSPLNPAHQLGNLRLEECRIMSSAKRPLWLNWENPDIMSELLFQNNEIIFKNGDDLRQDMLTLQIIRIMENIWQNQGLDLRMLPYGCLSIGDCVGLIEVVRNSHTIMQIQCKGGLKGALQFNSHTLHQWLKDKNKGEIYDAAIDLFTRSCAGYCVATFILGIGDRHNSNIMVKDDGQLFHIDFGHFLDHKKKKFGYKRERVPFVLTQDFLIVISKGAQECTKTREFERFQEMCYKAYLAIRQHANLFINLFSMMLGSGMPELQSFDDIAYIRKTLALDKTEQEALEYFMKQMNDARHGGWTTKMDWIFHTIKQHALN
- Sequence (P27986 whole entry partner): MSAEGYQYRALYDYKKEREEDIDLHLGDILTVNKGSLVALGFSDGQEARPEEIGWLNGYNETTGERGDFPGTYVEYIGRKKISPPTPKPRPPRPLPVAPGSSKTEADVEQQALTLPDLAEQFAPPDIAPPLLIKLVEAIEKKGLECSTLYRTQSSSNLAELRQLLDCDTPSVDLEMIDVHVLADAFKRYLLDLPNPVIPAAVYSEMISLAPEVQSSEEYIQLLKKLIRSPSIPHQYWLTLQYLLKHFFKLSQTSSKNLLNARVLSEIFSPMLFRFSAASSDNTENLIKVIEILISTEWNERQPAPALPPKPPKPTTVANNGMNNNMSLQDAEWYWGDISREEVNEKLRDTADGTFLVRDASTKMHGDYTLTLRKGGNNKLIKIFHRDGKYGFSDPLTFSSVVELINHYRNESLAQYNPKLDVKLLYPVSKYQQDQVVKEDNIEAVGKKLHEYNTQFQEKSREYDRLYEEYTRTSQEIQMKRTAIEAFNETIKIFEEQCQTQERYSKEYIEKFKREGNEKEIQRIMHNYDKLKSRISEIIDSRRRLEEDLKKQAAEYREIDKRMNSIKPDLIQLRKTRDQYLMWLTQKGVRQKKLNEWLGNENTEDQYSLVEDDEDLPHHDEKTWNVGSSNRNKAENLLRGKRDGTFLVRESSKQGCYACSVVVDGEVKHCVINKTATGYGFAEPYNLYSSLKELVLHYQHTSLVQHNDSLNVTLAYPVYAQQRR
- Assay remarks: ADP-Glo Biochemical PIK3CA Kinase Assay
- Experimental setup: ADP-Glo biochemical PIK3CA kinase assay
pIC50: −log10 of the molar value.
Property measured: pIC50

| Sample smiles | Reported |
| --- | --- |
| CNC(=O)c1cnc(Nc2ccccc2C)c(NC(=O)Cc2ccc(F)cc2C(F)(F)F)c1 | 4.00 to 5.00 |
| COc1cncc(CNC(=O)c2cc(NC(=O)c3csc4ccccc34)n(CC3CCC3)c(=O)c2)c1 | 4.00 to 5.00 |
| Cc1ccccc1Nc1ncc(C(=O)N2CC(C)(C#N)C2)cc1NC(=O)c1csc2ccccc12 | 5.00 to 6.00 |

// below: pIC50 requested for another compound
Lookup: Give the reported pIC50 for this compound. CNC(=O)c1cnc(Nc2ccccc2C)c(NC(=O)c2ccc3cnccc3n2)c1
Found: 5.00 to 6.00
